Cited source: patent US20260242735A1

Target: human CD33 variant Y50S (human, UniProt P20138 18-364)
Sequence (P20138 18-364 Y50S limits assumed): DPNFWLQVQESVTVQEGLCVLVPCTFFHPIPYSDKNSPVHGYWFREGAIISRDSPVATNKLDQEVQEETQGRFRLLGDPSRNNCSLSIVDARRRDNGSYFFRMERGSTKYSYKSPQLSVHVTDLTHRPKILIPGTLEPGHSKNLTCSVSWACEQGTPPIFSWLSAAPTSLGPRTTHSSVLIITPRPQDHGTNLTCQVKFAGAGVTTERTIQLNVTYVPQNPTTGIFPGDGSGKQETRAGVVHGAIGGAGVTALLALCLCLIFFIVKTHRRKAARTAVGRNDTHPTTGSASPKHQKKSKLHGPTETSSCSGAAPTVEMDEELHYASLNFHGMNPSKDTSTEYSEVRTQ
Assay: flow cytometry, IgG on cells expressing the mutant
experimental readout: Mean % WT Binding

Recorded results for 3 binders are shown here.
binder	Mean % WT Binding
Refmab #1 (antibody, human IgG1, V domains shown, Tested in IgG format; human IgG1 (Absolute Antibody hP67.6, Cat. No. Ab00283-10.0); also called hP67.6) VH: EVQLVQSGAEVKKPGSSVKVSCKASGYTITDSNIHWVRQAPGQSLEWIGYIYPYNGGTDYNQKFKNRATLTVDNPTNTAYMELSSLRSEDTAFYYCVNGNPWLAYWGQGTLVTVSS VL: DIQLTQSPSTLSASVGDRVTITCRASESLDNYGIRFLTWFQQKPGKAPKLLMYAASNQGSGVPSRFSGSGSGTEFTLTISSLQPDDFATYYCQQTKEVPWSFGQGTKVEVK	101 % of WT
Refmab #3 (antibody, human IgG1, V domains shown, Tested in IgG format; human IgG1 Fc silent (PG-LALA)) VH: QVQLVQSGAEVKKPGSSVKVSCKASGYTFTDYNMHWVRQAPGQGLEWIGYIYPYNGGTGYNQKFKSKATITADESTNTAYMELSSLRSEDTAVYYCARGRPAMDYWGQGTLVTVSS VL: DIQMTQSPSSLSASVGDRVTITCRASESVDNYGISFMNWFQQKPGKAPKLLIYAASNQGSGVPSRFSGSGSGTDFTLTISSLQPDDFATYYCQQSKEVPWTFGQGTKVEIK	97.2 % of WT
Refmab #4 (antibody, human IgG1, V domains shown, Tested in IgG format; human IgG1 Fc silent (PG-LALA)) VH: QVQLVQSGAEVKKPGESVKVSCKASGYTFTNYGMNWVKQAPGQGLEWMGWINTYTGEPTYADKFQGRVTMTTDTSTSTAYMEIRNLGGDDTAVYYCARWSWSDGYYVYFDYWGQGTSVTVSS VL: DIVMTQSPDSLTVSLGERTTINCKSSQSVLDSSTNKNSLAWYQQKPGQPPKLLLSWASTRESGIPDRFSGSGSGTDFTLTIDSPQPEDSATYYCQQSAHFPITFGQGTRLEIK	2.9 % of WT

# evaluate next
What Mean % WT Binding value was documented for this binder, Refmab #2 (antibody, human IgG1, V domains shown, Tested in IgG format; human IgG1 Fc silent (PG-LALA)) VH: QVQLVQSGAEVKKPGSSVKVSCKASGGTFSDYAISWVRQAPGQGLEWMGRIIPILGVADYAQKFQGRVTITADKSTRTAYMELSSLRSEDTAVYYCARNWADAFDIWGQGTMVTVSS VL: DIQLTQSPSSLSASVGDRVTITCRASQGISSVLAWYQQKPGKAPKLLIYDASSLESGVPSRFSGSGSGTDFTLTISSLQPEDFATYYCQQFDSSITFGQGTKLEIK ?
123 % of WT
